System: Hepatovirus A
Experiment: Inhibition of hepatitis A virus 3C proteinase at 1 uM by microplate assay
Everything with inhibition lower than 30% is Not fulfilled; everything else, including exactly 30%, is Fulfilled.

Hi, just wondering whether `O=C(Oc1cncc(Cl)c1)c1cc2ccccc2[nH]1` shows inhibition of 30% or higher.
Fulfilled

Kindly determine if inhibition recorded for `O=C(Oc1cncc(Cl)c1)c1ccc(Cl)cc1O` is above or exactly 30%.
Fulfilled

Answer whether inhibition of `Nc1ccc(C(=O)Oc2cncc(Cl)c2)cc1` is greater than or equal to 30%.
Not fulfilled

Given `O=C(Oc1ccncc1)c1cccs1` , state whether its inhibition is at least 30%.
Not fulfilled

Could you please find out whether `O=C(Oc1cncc(Cl)c1)c1ccco1` has inhibition that meets 30% or exceeds it?
Fulfilled

Test whether the compound `CN(C)c1ccc(C(=O)Oc2cncc(Cl)c2)cc1` records inhibition of 30% or higher.
Fulfilled

Threshold query (inhibition >= 30%) on `O=C(Oc1cncc(Cl)c1)C1CCCCC1`
Fulfilled

I'd appreciate it if you could say whether `O=C(Oc1cncc(Cl)c1)c1ccc2[nH]cnc2c1` has inhibition at least equal to 30%.
Fulfilled

Decide: is the reported value of inhibition for `O=C(Oc1cncc(Cl)c1)c1cn[nH]c1` equal to or greater than 30%?
Not fulfilled

Quick check, inhibition >= 30%? `O=C(Oc1cncc(Cl)c1)c1cccs1`
Fulfilled

API: above_or_equal(metric=inhibition, cutoff=30%) for item `CNc1ccc(C(=O)Oc2cncc(Cl)c2)cc1`
Not fulfilled

Decide: inhibition of `O=C(Oc1cncc(Cl)c1)c1cc(F)c(Cl)nc1Cl` >= 30%?
Not fulfilled

Could you please find out whether `O=C(Oc1cncc(Cl)c1)c1ccc2ccccc2c1` has inhibition that meets 30% or exceeds it?
Fulfilled

Please check the record `O=C(Oc1cncc(Cl)c1)c1ccc(-c2cc(C(F)(F)F)ccc2Cl)o1` and state if its inhibition is at or above 30%.
Fulfilled

Could you please find out whether `COc1cccc(C(=O)Oc2cncc(Cl)c2)c1` has inhibition that meets 30% or exceeds it?
Fulfilled

* * *

Tested on: Hepatovirus A
Assay: Inhibition of hepatitis A virus 3C proteinase at 10 uM by microplate assay
outcome-measure: inhibition (%)
Your answer should be a plain number; it is taken to be in %.

According to the records, this compound `COc1ccc(C(=O)Oc2cncc(Cl)c2)cc1` displays inhibition of 85

So for `O=C(Oc1cncc(Cl)c1)c1cc2ccccc2oc1=O` , the logged inhibition turned out to be 75

Reported inhibition of `O=C(Oc1cccc(Cl)n1)c1cccs1` : 16

Per the records, this compound ( `O=C(Oc1cncc(Cl)c1)c1ccncc1` ) has inhibition equal to 37

Consider `O=C(/C=C/c1ccco1)Oc1cncc(Cl)c1` . Its measured inhibition is 83

The measured inhibition associated with `O=C(OCc1cncc(Br)c1)c1ccco1` reads 67

* * *

Test system: Hepatovirus A
Assay: Inhibition of hepatitis A virus 3C proteinase at 0.25 uM by microplate assay
Use 40% as the dividing line for inhibition, with the line itself on the criterion met side and lower values as criterion not met.

Entry `O=C(Oc1cncc(Cl)c1)c1cc([N+](=O)[O-])[nH]n1` : is its inhibition no less than 40%?
criterion met

API: above_or_equal(metric=inhibition, cutoff=40%) for item `O=C(Oc1cncc(Cl)c1)c1cccs1`
criterion met

Given `Cc1onc(-c2ccccc2)c1C(=O)Oc1cncc(Cl)c1` , state whether its inhibition is at least 40%.
criterion not met

Is it the case that `O=C(Oc1cncc(Cl)c1)c1ccc2ncsc2c1` has inhibition reaching or exceeding 40%?
criterion not met

// inclusive: inhibition at least 40%? input: `COc1ccccc1C(=O)Oc1cncc(Cl)c1`
criterion not met

Does inhibition meet or surpass 40% for `O=C(Oc1cncc(Cl)c1)c1ccc(Cl)cc1O` ?
criterion not met

Test whether the compound `O=C(Oc1cncc(Cl)c1)c1ccc(-c2ccc(Cl)cc2)o1` records inhibition of 40% or higher.
criterion not met

Is inhibition at least 40%? Consider `O=C(Oc1cncc(Cl)c1)c1ccc(-c2ccccc2C(F)(F)F)o1`
criterion not met

Threshold query (inhibition >= 40%) on `O=C(Oc1cncc(Cl)c1)c1ccc2[nH]ccc2c1`
criterion not met

* * *

Assay: Inhibition of hepatitis A virus 3C proteinase by microplate assay
Parameters: species or system Hepatovirus A
Yes if IC50 is below 200 nM. No if not; exact matches included in No.

Strictly below 200 nM: is that where IC50 of `O=C(Oc1cncc(Cl)c1)c1ccc(Br)o1` sits?
No

Determine whether this compound shows IC50 lower than 200 nM (ties excluded): `O=C(Oc1cncc(Cl)c1)c1ccco1`
No

Hello, is IC50 of the following compound strictly smaller than 200 nM? `O=C(Oc1cncc(Cl)c1)c1cc([N+](=O)[O-])[nH]n1`
No

Just wondering, is IC50 of `O=C(Oc1cncc(Cl)c1)c1cccs1` below 200 nM?
No

For `O=C(/C=C/c1ccco1)Oc1cncc(Cl)c1` , is the recorded IC50 below the cut-off of 200 nM?
Yes

is_below(IC50, 200 nM) for `O=C(Oc1cncc(Br)c1)c1ccco1` ?
Yes

* * *

Test system: Hepatovirus A
Assay: Inhibition of hepatitis A virus 3C proteinase at 10 uM by microplate assay
outcome-measure: inhibition (%)
Kindly provide the numeric value in % only, without the unit symbol.

inhibition measured on `O=C(Oc1ccc(Cl)nc1)c1cccs1` = 25

inhibition measured on `O=C(Oc1cncc(Cl)c1)c1ccc(-c2cc(C(F)(F)F)ccc2Cl)o1` = 76

Data point: `O=C(Oc1cncc(Cl)c1)c1ccc(-c2ccccc2)cc1` ; inhibition = 39

// field: inhibition; key: `O=C(Oc1cncc(Cl)c1)c1cc(F)c(Cl)nc1Cl` ; value = 44

// `O=C(Oc1cncc(Cl)c1)c1ccc(-c2ccccc2[N+](=O)[O-])o1` : inhibition value = 37

Sample `Cc1ccc(C(=O)Oc2cncc(Cl)c2)cc1` ; inhibition observed: 77

According to the records, this molecule `Cc1cccc(OC(=O)c2cccs2)n1` displays inhibition of 91

The molecule listed as `O=C(Oc1cncc(Cl)c1)c1ccc2[nH]cnc2c1` has a reported inhibition of 82

Summary for this molecule, `COc1ccccc1C(=O)Oc1cncc(Cl)c1` : inhibition is 85

Consider `CNc1ccc(C(=O)Oc2cncc(Cl)c2)cc1` . Its measured inhibition is 82

Value of measured inhibition for the entry `O=C(Oc1cncc(Cl)c1)c1ccc[nH]1` : 92

Input `Cc1ccc(OC(=O)c2cccs2)c([N+](=O)[O-])n1` . Output inhibition: 14

// recorded inhibition for `O=C(Oc1cncc(Cl)c1)c1cn[nH]c1` : 56

Form field inhibition, entry `O=C(Oc1cncc(Cl)c1)C1CCCCC1` : 81

The recorded inhibition for entry `O=C(Oc1cccnc1)c1cccs1` equals 83

According to the records, this molecule `Cc1ccccc1C(=O)Oc1cncc(Cl)c1` displays inhibition of 82

Record summary for `Cc1ccc(OC(=O)c2cccs2)cn1` : reported inhibition = 23

For this molecule ( `O=C(Cc1cccnc1)c1cccs1` ), measured inhibition is 10

Briefly, inhibition measured for `O=C(Oc1cncc(Cl)c1)c1c[nH]c2ccccc12` : 13

`O=C(Oc1ccccn1)c1cccs1` yielded inhibition of 89

Given item `O=C(Oc1cncc(Cl)c1)c1cc([N+](=O)[O-])[nH]n1` , the value recorded as its inhibition is 54

// recorded inhibition for `O=C(Oc1cncc(Cl)c1)c1cccc(Cl)c1` : 29

Form field inhibition, entry `Cc1ccc(OC(=O)c2cccs2)nc1` : 12

Quick note, inhibition for `O=C(Oc1cncc(Cl)c1)c1ccc2ncsc2c1` landed at 74

The molecule `NS(=O)(=O)c1ccc(C(=O)Oc2cncc(Cl)c2)cc1` showed inhibition equal to 64

The measured inhibition associated with `COc1ccc(C(=O)Oc2cncc(Cl)c2)cc1OC` reads 59

# inhibition of `O=C(Oc1cncc(Cl)c1)c1ccc(-c2ccc(Cl)cc2[N+](=O)[O-])o1` = 40

Please fill in: inhibition reported for `O=C(Oc1cncc(Cl)c1)c1cnccn1` = 22

Data point: `O=C(Oc1cncc(Cl)c1)c1cc2ccccc2[nH]1` ; inhibition = 80

* * *

Tested on: Hepatovirus A
Assay: Inhibition of hepatitis A virus 3C proteinase at 0.25 uM by microplate assay
# cutoff 40% applies to inhibition; >= gives Condition met, < gives Condition not met

Does `O=C(Oc1cncc(Cl)c1)c1ccccc1` have a reported inhibition of at least 40%?
Condition not met

Given `NS(=O)(=O)c1ccc(C(=O)Oc2cncc(Cl)c2)cc1` , state whether its inhibition is at least 40%.
Condition not met

Check the entry `CN(C)c1ccc(C(=O)Oc2cncc(Cl)c2)cc1` : does inhibition equal or exceed 40%?
Condition not met

Tell me whether inhibition is at least 40% here: `O=C(Oc1cncc(Cl)c1)c1cc2ccccc2o1`
Condition not met

Tell me whether inhibition is at least 40% here: `O=C(Oc1cncc(Cl)c1)c1ccc[nH]1`
Condition not met

Is the recorded value of inhibition equal to or greater than 40% for this compound? `O=C(Oc1cncc(Br)c1)c1ccco1`
Condition met

Check the entry `O=C(Oc1cncc(Cl)c1)c1cscn1` : does inhibition equal or exceed 40%?
Condition not met

Does the reported inhibition for `O=C(Oc1cncc(Cl)c1)c1ccccc1Cl` fall at or above the 40% mark?
Condition not met

Please tell me: is the compound `O=C(Oc1cncc(Cl)c1)c1ccco1` at or over 40% in terms of inhibition?
Condition met

Determine whether this compound has inhibition no lower than 40%: `O=C(/C=C/c1ccco1)Oc1cncc(Cl)c1`
Condition met

# bool: inhibition of `O=C(Oc1cncc(Cl)c1)c1ccc(Br)o1` >= 40%
Condition met

Textbook exercise: given the entry `Cc1ccc(C(=O)Oc2cncc(Cl)c2)s1` , state whether its inhibition is greater than or equal to 40%.
Condition not met

Given `O=C(Oc1cncc(Cl)c1)c1c[nH]cn1` , state whether its inhibition is at least 40%.
Condition not met

Could you tell me if the measured inhibition of `O=C(Oc1cncc(Cl)c1)c1ccc2[nH]cnc2c1` reaches 40% or more?
Condition not met
